These measurements were taken from patent US12410136B2.

Ki by entry:
Target: 5-HT2A receptor (Homo sapiens)
Construct: expressed in transfected cells; host or cells: HEK293
Sequence (P28223 whole entry): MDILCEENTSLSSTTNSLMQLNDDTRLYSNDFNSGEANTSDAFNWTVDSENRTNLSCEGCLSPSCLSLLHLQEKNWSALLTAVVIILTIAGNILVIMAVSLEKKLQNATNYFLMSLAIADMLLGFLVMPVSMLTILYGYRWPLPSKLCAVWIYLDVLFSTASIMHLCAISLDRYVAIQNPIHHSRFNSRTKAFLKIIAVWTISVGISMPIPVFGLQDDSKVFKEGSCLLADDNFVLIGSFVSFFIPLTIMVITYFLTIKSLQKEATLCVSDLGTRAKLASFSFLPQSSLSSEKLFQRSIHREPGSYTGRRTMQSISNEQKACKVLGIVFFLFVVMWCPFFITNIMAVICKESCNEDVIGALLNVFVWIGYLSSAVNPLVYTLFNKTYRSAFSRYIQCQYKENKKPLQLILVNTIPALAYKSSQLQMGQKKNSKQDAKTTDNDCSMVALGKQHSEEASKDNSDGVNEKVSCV
Experiment: 5-HT2A receptor binding test
Details: [3H]-Ketanserin, 5-HT2A receptor expressed in HEK293 cells; read-out: Affinity of the compound for each receptor (Ki value, nM) 5-HT2A
valueType: Ki

inputsmiles=O=C(N[C@H]1CC[C@H](CCN2CCN(c3cc(-c4cccs4)cc(N4CCOCC4)n3)CC2)CC1)N1CCCC1 observedvalue="1.1 nM"
inputsmiles=O=C(N[C@H]1CC[C@H](CCN2CCN(c3cc(-c4ccc(F)cc4)cc(N4CCOCC4)n3)CC2)CC1)c1cccnc1 observedvalue="2.4 nM"
inputsmiles=O=C(N[C@H]1CC[C@H](CCN2CCN(c3cc(-c4cccs4)cc(N4CCOCC4)n3)CC2)CC1)C1CC1 observedvalue="2.1 nM"
inputsmiles=CCCC(=O)N[C@H]1CC[C@H](CCN2CCN(c3cc(-c4ccccc4)cc(N4CCOCC4)n3)CC2)CC1 observedvalue="1.9 nM"
